- System: ddy male mice
- method.notes: Micronucleus test
- Type: in vivo
- assay.context: intraperitoneally at 500 mg/Kg
metric: Micronucleus test result

Cc1cc(-c2ccc3c(=O)c(C(=O)O)cn(C4CC4)c3c2C)cnc1N = negative
Cc1cc(-c2ccc3c(=O)c(C(=O)O)cn(C4CC4)c3c2C)cc(C)n1 = negative
CNc1ncc(-c2ccc3c(=O)c(C(=O)O)cn(C4CC4)c3c2C)cc1C = negative
Cc1ccc(-c2ccc3c(=O)c(C(=O)O)cn(C4CC4)c3c2C)cn1 = negative
